Cited source: patent US20250163104A1

Target: human PD-1 / PD-L1-Ig binding on Jurkat cell line over-expressing human PD-1 (Jurkat-PD-1) (Homo sapiens, UniProt Q15116)
Construct: expressed in transfected cells; host or cells: Jurkat
Sequence (Q15116 25-288): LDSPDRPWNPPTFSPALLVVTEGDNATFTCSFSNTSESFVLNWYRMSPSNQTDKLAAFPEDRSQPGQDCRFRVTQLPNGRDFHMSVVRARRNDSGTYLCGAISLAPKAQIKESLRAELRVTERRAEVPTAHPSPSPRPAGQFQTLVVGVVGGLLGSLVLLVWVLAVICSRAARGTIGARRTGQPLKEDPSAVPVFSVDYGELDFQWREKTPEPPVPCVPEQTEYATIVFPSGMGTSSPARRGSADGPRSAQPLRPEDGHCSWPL
Assay: Jurkat-PD-1 Cell Binding High-Content Screening Assay (CBA)
Format: cell-based
Conditions: Jurkat HPD1_PDL1 IC50, Jurkat-PD-1 cells, PE-labeled PD-L1-Ig 20 nM final
Method: Example 3. Jurkat-PD-1 Cell Binding High-Content Screening Assay (CBA) Jurkat-PD-1 Cell Binding High-Content Screening Assay (CBA). Phycoerythrin (PE) was covalently linked to the Ig epitope tag of human PD-L1-Ig and fluorescently-labeled PD-L1-Ig was used for binding studies with a Jurkat cell line over-expressing human PD-1 (Jurkat-PD-1). Briefly, 8×10^3 Jurkat-hPD-1 cells were seeded into 384 well plates in 20 μl of DMEM supplemented with 10% fetal calf serum. […]
Where a SMILES comes first, the peptide text is derived from it. Bridges are numbered along the chain shown (N, C = ends). [ ]: non-standard residue; d: D form. Bip = N[C@@H](Cc1ccc(-c2ccccc2)cc1)C(=O)O; Orn = NCCC[C@H](N)C(=O)O
attribute-measured: IC50 (nM)

CC(C)C[C@@H]1NC(=O)[C@H](Cc2c[nH]c3ccccc23)NC(=O)[C@H](CC(=O)O)NC(=O)[C@H](Cc2ccc(O)cc2)NC(=O)[C@H](Cc2ccccc2)NC(=O)CSC[C@@H](C(=O)NCC(N)=O)NC(=O)[C@H]([C@@H](C)O)NC(=O)[C@H](C(C)C)NC(=O)[C@H](CC(C)C)NC(=O)[C@H](CC(N)=O)NC(=O)[C@@H](C)NC(=O)[C@H](CCCN)NC(=O)[C@H](C(C)C)NC(=O)[C@H](Cc2ccc(-c3ccccc3)cc2)NC1=O [Compound 1107] ({CH2CO}-FYDWL[Bip]V[Orn][dA]NLVTCG-NH2; thioether N-14) ... 310
CC(C)C[C@H]1NC(=O)[C@H](CCCN)NC(=O)[C@H](CCC(=O)O)NC(=O)[C@H](Cc2ccc(-c3ccccc3)cc2)NC(=O)[C@H](C(C)C)NC(=O)[C@H](Cc2c[nH]c3ccccc23)NC(=O)[C@H](CC(=O)O)NC(=O)[C@H](Cc2ccncc2)NC(=O)[C@H](Cc2ccc(OCC(=O)O)cc2)NC(=O)CSC[C@@H](C(=O)N[C@@H](C)C(N)=O)NC(=O)[C@H]([C@@H](C)O)NC(=O)[C@H](C(C)C)NC(=O)[C@H](CC2CCCCC2)NC(=O)[C@H](Cc2c[nH]cn2)NC1=O [Compound 1605] ... 23.1
